Each entry below carries its recorded photolytic yield.
- Protocol Text: Photolytic molecule experiment: TTAP photolytic reaction in solution under LED, HPLC yield
- Type: physicochemical
- Reported Conditions: PtTNP; NIR LED light (20 mW/cm^2, 720 nm, 1 h)
Reported Endpoint: photolytic yield (%)

> print(dat)
                                   compound  unit.abbreviation  recorded.number
1  COc1ccc2cc(C(C)C(=O)OCc3ccc4c5cccc6cccc(c7cccc3c74)c65)ccc2c1 (stereo not shown)                  %             17.4
2  CCCCNC(=O)OCc1ccc2c3cccc4cccc(c5cccc1c52)c43                  %             29.3
3  COc1ccc2c(c1)c(CC(=O)OCc1ccc3c4cccc5cccc(c6cccc1c63)c54)c(C)n2C(=O)c1ccc(Cl)cc1                  %              9.2
4  CC(C)(C)OC(=O)NCC(=O)OCc1ccc2c3cccc4cccc(c5cccc1c52)c43                  %             29.6

* * *

- Protocol Text: Photolytic molecule experiment: TTAP photolytic reaction in solution under LED, HPLC yield
- Assay type: physicochemical
- Reported Conditions: PdTPBP; far-red LED light (20 mW/cm^2, 650 nm)
Reported photolytic yield values for a set of compounds
Reported Endpoint: photolytic yield (%)

> print(dat)
                                   compound  reported.endpoint  recorded.number
1  CC(C)(C)OC(=O)NCC(=O)OCc1ccc2c3cccc4cccc(c5cccc1c52)c43   photolytic yield             89.2
2  CC(C)(C)OC(=O)N[C@@H](CSSC(C)(C)C)C(=O)OCc1ccc2c3cccc4cccc(c5cccc1c52)c43   photolytic yield             81.2
3  CCCCNC(=O)OCc1ccc2c3cccc4cccc(c5cccc1c52)c43   photolytic yield             52.4
4  O=C(CCCc1ccc(N(CCCl)CCCl)cc1)OCc1ccc2c3cccc4cccc(c5cccc1c52)c43   photolytic yield             72.8
5  CC(C)Cc1ccc(C(C)C(=O)OCc2ccc3c4cccc5cccc(c6cccc2c63)c54)cc1 (centres unmarked)   photolytic yield             71.6
6  CC(C)COC(=O)OCc1ccc2c3cccc4cccc(c5cccc1c52)c43   photolytic yield             65.3
7  COc1ccc2c(c1)c(CC(=O)OCc1ccc3c4cccc5cccc(c6cccc1c63)c54)c(C)n2C(=O)c1ccc(Cl)cc1   photolytic yield             51.7
8  COc1ccc2cc(C(C)C(=O)OCc3ccc4c5cccc6cccc(c7cccc3c74)c65)ccc2c1 (centres unmarked)   photolytic yield             78.5

* * *

- Protocol Text: Photophysical parameters of Sen and PPGs (UV-vis absorption, emission, energy levels)
- Format: physicochemical
- Parameters: unit not given here
- Reported Conditions: in toluene, 10 μM

Smiles Notation	λem maximum emission wavelength
CCC1=C(CC)c2cc3[n-]c(cc4nc(cc5[n-]c(cc1n2)c(CC)c5CC)C(CC)=C4CC)c(CC)c3CC.[Pt+2]	647
CC(=O)OCc1c2ccccc2cc2ccccc12	411
CC(=O)OCc1ccc2c3cccc4cccc(c5cccc1c52)c43	445
[Pd+2].c1ccc(-c2c3nc(c(-c4ccccc4)c4[n-]c(c(-c5ccccc5)c5nc(c(-c6ccccc6)c6[n-]c2c2ccccc62)-c2ccccc2-5)c2ccccc42)-c2ccccc2-3)cc1	790
